This collection of values is drawn from patent US8815919B2.

target.or.test.system: S1P1 (Homo sapiens, UniProt P21453)
Sequence (P21453 whole entry, species assumed): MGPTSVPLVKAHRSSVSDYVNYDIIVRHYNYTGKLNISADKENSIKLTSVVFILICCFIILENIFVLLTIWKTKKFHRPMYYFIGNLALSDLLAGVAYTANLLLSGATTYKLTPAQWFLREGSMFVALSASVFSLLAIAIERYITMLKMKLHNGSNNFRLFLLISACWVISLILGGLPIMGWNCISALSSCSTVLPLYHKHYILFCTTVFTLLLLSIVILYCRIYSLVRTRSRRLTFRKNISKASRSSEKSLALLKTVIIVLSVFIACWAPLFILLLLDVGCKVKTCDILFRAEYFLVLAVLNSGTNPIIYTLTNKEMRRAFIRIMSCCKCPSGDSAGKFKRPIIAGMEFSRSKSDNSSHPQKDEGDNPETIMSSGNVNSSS
test.details: Receptor binding assay, [33P]sphingosine 1-phosphate competition, S1P1 membranes, WGA SPA beads
settings: 96 well-plate; read-out: S1P1 binding Ki (M) (96 well-plate)
Counter-ions that a name gives are not always drawn.
readout: Ki (M)
Numbers only, in M.

Worked cases, answers included:
COCc1cc(-c2nc(-c3cccc(COCCC(=O)O)c3)no2)ccc1-c1ccccc1C
3.29e-09
COCc1cc(-c2nc(-c3cccc(S(C)(=O)=O)c3)no2)ccc1N1CCCCC1C (stereo not shown) [Example 6, hydrochloride salt]
1.24e-09
COCc1cc(-c2nc(-c3ccc(CNCC(=O)O)c(F)c3)no2)ccc1-c1ccccc1F [Example 82, hydrochloride salt]
5.42e-11
COCc1cc(-c2nc(-c3cccc(CN(C)CC(=O)O)c3)no2)ccc1-c1cc(F)ccc1Cl [Example 65, hydrochloride salt]
5.31e-10

State recorded Ki for all listed compounds.
1. CC1CCCCN1c1ccc(-c2nc(-c3cccc(CN(C)CC(=O)O)c3)no2)cc1C(F)(F)F (stereo not shown)
2. CCOc1cc(-c2nc(-c3ccc(CN(C)CC(=O)O)c(F)c3)no2)ccc1-c1ccccc1C [Example 92, hydrochloride salt]
3. COCc1cc(-c2nc(-c3cccc(CN(C)CC(=O)O)c3)no2)ccc1N1CCCC1C (stereo not shown)

Marked response:
4.58e-10
1.72e-10
1.18e-10
